target.of.assay: T1, recombinant human PD-L1 protein (Acro Biosystems, cat #EP-101 assay pair) (human, UniProt Q9NZQ7 19-238)
T1 construct: Bought protein; construct not described; also called hPD-L1; human PD-L1 (AcroBiosystems, cat #EP-101)
method.notes: competitive SPR, peptide preincubated with human PD-L1, injected over immobilised PD-1
Positions of bridges follow the written chain, without caps; N, C: chain ends. No end group written: not given here.
# IC50 per record follows
The reply must contain the numeric value and, after it, the unit.

Challenge: Quick check: IC50 of CHRSYYCWNLNT (disulfide 1-7, Cyclic variant of CLP002) [CLP2C21] ?
Response given: 143 nM

Challenge: Then this binder: CHRSYYTWNLNC (disulfide 1-12, Cyclic variant of CLP002) [CLP2C14]
Response given: 119 nM
